# Tested on: Streptococcus pyogenes
# experiment-summary: Antibacterial activity against Streptococcus pyogenes C203 by microbroth dilution susceptibility assay
# Format: functional
endpoint: MIC (µg/mL)

Look over these answered cases.
>>> result_number("Cc1c(N2CCC2)c(F)cc2c(=O)n(N)c(=O)n(C3CC3)c12")
64
>>> result_number("Cc1c(N2CCCC2)c(F)cc2c(=O)n(N)c(=O)n(C3CC3)c12")
1
>>> result_number("CN[C@@H](C)[C@@H]1CCN(c2c(F)cc3c(=O)n(N)c(=O)n(C4CC4)c3c2C)C1")
0.015
>>> result_number("Cc1c(N2CC[C@H]([C@H](C)N)C2)c(F)cc2c(=O)n(N)c(=O)n(C3CC3)c12")
0.5
>>> result_number("Cc1c(N2CCNCC2)c(F)cc2c(=O)n(N)c(=O)n(C3CC3)c12")
4
>>> result_number("Cc1c(N2CCC(CN)C2)c(F)cc2c(=O)n(N)c(=O)n(C3CC3)c12 (centres undefined)")
0.06

1: CCC(N)C1CCN(c2c(F)cc3c(=O)n(N)c(=O)n(C4CC4)c3c2C)C1 (centres undefined)
2: CCN[C@@H](C)[C@@H]1CCN(c2c(F)cc3c(=O)n(N)c(=O)n(C4CC4)c3c2C)C1
3: Cc1c(N2CCC(N)C2)c(F)cc2c(=O)n(N)c(=O)n(C3CC3)c12 (centres undefined)
4: Cc1c(N2CCCCC2)c(F)cc2c(=O)n(N)c(=O)n(C3CC3)c12
Lookup: Rank ascending by MIC. Please, when replying, give the labels in the order that was requested.
Found: 1, 2, 3, 4

1: Cc1c(N2CCC(C(N)c3ccccc3)C2)c(F)cc2c(=O)n(N)c(=O)n(C3CC3)c12 (centres undefined)
2: Cc1c(N2CCC(C(C)(C)N)C2)c(F)cc2c(=O)n(N)c(=O)n(C3CC3)c12 (centres undefined)
Lookup: Hi! Which is lower in terms of MIC, the first one 1 or the second one 2 ? Pick one; state its label.
Found: 1

###

# System: Escherichia coli
# experiment-summary: Antibacterial activity against wild-type Escherichia coli MC4100 by microbroth dilution susceptibility assay
# Assay type: functional
endpoint: MIC (µg/mL)

Look over these answered cases.
>>> result_number("CN[C@@H](C)[C@@H]1CCN(c2c(F)cc3c(=O)n(N)c(=O)n(C4CC4)c3c2C)C1")
4
>>> result_number("Cc1c(N2CC[C@H]([C@H](C)N)C2)c(F)cc2c(=O)n(N)c(=O)n(C3CC3)c12")
4
>>> result_number("Cc1c(N2CCC(CN)C2)c(F)cc2c(=O)n(N)c(=O)n(C3CC3)c12 (stereo not drawn)")
2
>>> result_number("Cc1c(N2CCC(C3(N)CC3)C2)c(F)cc2c(=O)n(N)c(=O)n(C3CC3)c12 (stereo not drawn)")
2
>>> result_number("Cc1c(N2CCC(C(N)c3ccccc3)C2)c(F)cc2c(=O)n(N)c(=O)n(C3CC3)c12 (stereo not drawn)")
4

1: Cc1c(N2CCC(N)C2)c(F)cc2c(=O)n(N)c(=O)n(C3CC3)c12 (stereo not drawn)
2: Cc1c(N2CCC(CCN)C2)c(F)cc2c(=O)n(N)c(=O)n(C3CC3)c12 (stereo not drawn)
Lookup: Hi! Which is lower in terms of MIC, the first one 1 or the second one 2 ? Pick one; state its label.
Found: 1
(1: 1 µg/mL, 2: 16 µg/mL)

Every entry's value here was drawn from ChEMBL document CHEMBL1141691.
